Experimental Protocol: activity coefficient (dimensionless); of the first substance listed, at infinite dilution; xn = mol fraction of the nth substance listed
Recorded Conditions: 323.15 K; 101.33 kPa; Liquid; Chromatography; x1 = 0
Experimental Endpoint: activity coefficient

Molecule	Measured
Cc1ccccc1 [toluene] + CCCCCCCCCCCCCC[P+](CCCCCC)(CCCCCC)CCCCCC.N#C[N-]C#N	0.458
C#CCCCC [1-hexyne] + CCCCCCCCCCCCCC[P+](CCCCCC)(CCCCCC)CCCCCC.N#C[N-]C#N	0.513
Cc1ccccc1C [1,2-dimethylbenzene] + CCCCCCCCCCCCCC[P+](CCCCCC)(CCCCCC)CCCCCC.N#C[N-]C#N	0.566
C#CCCC [1-pentyne] + CCCCCCCCCCCCCC[P+](CCCCCC)(CCCCCC)CCCCCC.N#C[N-]C#N	0.465
CC(C)=O [acetone] + CCCCCCCCCCCCCC[P+](CCCCCC)(CCCCCC)CCCCCC.N#C[N-]C#N	0.363
C=CCCCCCCCC [1-decene] + CCCCCCCCCCCCCC[P+](CCCCCC)(CCCCCC)CCCCCC.N#C[N-]C#N	1.77
C=CCCCCC [1-heptene] + CCCCCCCCCCCCCC[P+](CCCCCC)(CCCCCC)CCCCCC.N#C[N-]C#N	1.13
c1ccsc1 [thiophene] + CCCCCCCCCCCCCC[P+](CCCCCC)(CCCCCC)CCCCCC.N#C[N-]C#N	0.383
C#CCCCCC [1-heptyne] + CCCCCCCCCCCCCC[P+](CCCCCC)(CCCCCC)CCCCCC.N#C[N-]C#N	0.57
CCCCCC [hexane] + CCCCCCCCCCCCCC[P+](CCCCCC)(CCCCCC)CCCCCC.N#C[N-]C#N	1.24
CCc1ccccc1 [ethylbenzene] + CCCCCCCCCCCCCC[P+](CCCCCC)(CCCCCC)CCCCCC.N#C[N-]C#N	0.606
O [water] + CCCCCCCCCCCCCC[P+](CCCCCC)(CCCCCC)CCCCCC.N#C[N-]C#N	1.82
C1=CCCCC1 [cyclohexene] + CCCCCCCCCCCCCC[P+](CCCCCC)(CCCCCC)CCCCCC.N#C[N-]C#N	0.709
CCCO [propan-1-ol] + CCCCCCCCCCCCCC[P+](CCCCCC)(CCCCCC)CCCCCC.N#C[N-]C#N	0.41
C=CCCCCCCC [1-nonene] + CCCCCCCCCCCCCC[P+](CCCCCC)(CCCCCC)CCCCCC.N#C[N-]C#N	1.53
Cc1cccc(C)c1 [1,3-dimethylbenzene] + CCCCCCCCCCCCCC[P+](CCCCCC)(CCCCCC)CCCCCC.N#C[N-]C#N	0.654

###

Experimental Protocol: activity coefficient (dimensionless); of the first substance listed, at infinite dilution; xn = mol fraction of the nth substance listed
Recorded Conditions: 313.15 K; 101.33 kPa; Liquid; Chromatography; x1 = 0
Experimental Endpoint: activity coefficient

Compound	Measured
O [water] + CCCCCCCCCCCCCC[P+](CCCCCC)(CCCCCC)CCCCCC.N#C[N-]C#N	1.95
C1CCCCCCC1 [cyclooctane] + CCCCCCCCCCCCCC[P+](CCCCCC)(CCCCCC)CCCCCC.N#C[N-]C#N	0.89
c1ccccc1 [benzene] + CCCCCCCCCCCCCC[P+](CCCCCC)(CCCCCC)CCCCCC.N#C[N-]C#N	0.319
Cc1ccccc1 [toluene] + CCCCCCCCCCCCCC[P+](CCCCCC)(CCCCCC)CCCCCC.N#C[N-]C#N	0.419
